target.under.test: ERα (Homo sapiens, UniProt P03372)
Sequence (P03372 whole entry): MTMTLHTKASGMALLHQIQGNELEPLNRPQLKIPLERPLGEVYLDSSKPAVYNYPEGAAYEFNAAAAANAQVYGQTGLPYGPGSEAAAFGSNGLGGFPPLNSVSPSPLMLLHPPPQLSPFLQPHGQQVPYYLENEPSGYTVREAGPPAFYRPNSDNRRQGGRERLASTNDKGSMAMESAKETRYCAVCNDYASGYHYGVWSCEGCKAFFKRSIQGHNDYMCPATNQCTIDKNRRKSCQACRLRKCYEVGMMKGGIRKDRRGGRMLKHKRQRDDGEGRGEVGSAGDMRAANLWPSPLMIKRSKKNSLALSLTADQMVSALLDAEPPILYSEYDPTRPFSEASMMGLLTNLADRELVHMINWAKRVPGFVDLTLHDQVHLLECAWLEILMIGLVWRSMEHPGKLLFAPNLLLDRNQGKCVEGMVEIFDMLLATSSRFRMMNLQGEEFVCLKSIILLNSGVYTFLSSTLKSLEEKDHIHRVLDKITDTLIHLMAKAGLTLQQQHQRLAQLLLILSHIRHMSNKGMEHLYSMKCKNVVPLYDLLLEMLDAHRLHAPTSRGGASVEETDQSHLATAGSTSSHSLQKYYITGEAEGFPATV
protocol.details: Degradation of ERα in T-47D cells (immunoblotting, 4 h)
Assay type: cell-based
Design: host or cells: T-47D
measurement.setup: 1nM compound
I'd be grateful if you could share measured Degradation rate (%) of ERα in T-47D cells for these entries.
The answer is to be given in %; state only the numeric part.

Request: # Degradation rate (%) of ERα in T-47D cells lookup, item C[C@@H]1Cc2c(ccc3[nH]ncc23)C(c2ccc(N3CCC4(CCC(N5CCC6(CC5)COc5c6ccc6c5CN(C5CCC(=O)NC5=O)C6=O)CC4)CC3)cn2)N1CC(F)(F)F (some centres unmarked) [K41]
Result: 54

Request: Please give the measured Degradation rate (%) of ERα in T-47D cells for this molecule: CC1(C)CC(N2CCC3(CC2)COc2c3ccc3c2CN(C2CCC(=O)NC2=O)C3=O)CCN1C(=O)C1CCN(c2ccc([C@@H]3c4ccc(O)cc4CC[C@@H]3c3ccccc3)cc2)CC1 (some centres unmarked) [K28]
Result: 62

Request: What value of Degradation rate (%) of ERα in T-47D cells has been reported for the following molecule? C[C@@H]1Cc2c([nH]c3ccccc23)[C@@H](c2c(F)cc(N3CC4(CCC(N5CCC6(CC5)COc5c6ccc6c5CN(C5CCC(=O)NC5=O)C6=O)CC4)C3)cc2F)N1CC(F)F (some centres unmarked) [A104]
Result: 35

Request: Sample O=C1CCC(N2Cc3ccc4c(c3C2=O)CC2(CCN(C3CCC5(CC3)CN(c3ccc([C@@H]6c7ccc(O)cc7CC[C@@H]6c6ccccc6)cc3)C5)CC2)CO4)C(=O)N1 (some centres unmarked) [L10] — what was its Degradation rate (%) of ERα in T-47D cells?
Result: 14

Request: Returns the measured Degradation rate (%) of ERα in T-47D cells for the input molecule. Input: O=C1CCC(N2Cc3c(ccc4c3OCC43CCN(CC4CCN(C(=O)C5CCN(c6ccc([C@@H]7c8ccc(O)cc8CC[C@@H]7c7ccccc7)cc6)CC5)CC4)CC3)C2=O)C(=O)N1 (some centres unmarked) [A100]
Result: 77

Request: For the molecule O=C1CCC(N2Cc3ccc4c(c3C2=O)OCC42CCN(C3CCC4(CC3)CN(c3ccc([C@@H]5c6ccc(O)cc6CC[C@@H]5c5ccccc5)cc3)C4)CC2)C(=O)N1 (some centres unmarked) [L25] , what Degradation rate (%) of ERα in T-47D cells is on record?
Result: -1

Request: Report Degradation rate (%) of ERα in T-47D cells for CN(CC(=O)N1CCC2(CC1)COc1c2ccc2c1CN(C1CCC(=O)NC1=O)C2=O)C1CCC2(CC1)CN(c1ccc([C@@H]3c4ccc(O)cc4CC[C@@H]3c3ccccc3)cc1)C2 (some centres unmarked) [H52] please.
Result: 49

Request: Name the recorded Degradation rate (%) of ERα in T-47D cells for O=C1CCC(N2Cc3cc4c(cc3C2=O)CCC2(CN(C3CCN(C(=O)c5ccc([C@@H]6c7ccc(O)cc7CC[C@@H]6c6ccccc6)cc5)CC3)C2)O4)C(=O)N1 (some centres unmarked) [H10] .
Result: 0

Request: What does the record list as Degradation rate (%) of ERα in T-47D cells for O=C1CCC(N2Cc3cc4c(cc3C2=O)CCC2(CCN(C3CC5(CCN(c6ccc(C7c8ccc(O)cc8CCC7c7ccccc7)cc6)CC5)C3)CC2)O4)C(=O)N1 (centres unmarked) [M6] ?
Result: 22

Request: May I ask what Degradation rate (%) of ERα in T-47D cells has been recorded for O=C1CCC(N2Cc3cc4c(cc3C2=O)C2(CCN(C3CCC5(CC3)CCN(c3ccc([C@@H]6c7ccc(O)cc7CC[C@@H]6c6ccccc6)cc3)CC5)CC2)CO4)C(=O)N1 (some centres unmarked) [L5] ?
Result: 12

Request: GET /values?readout=Degradation rate (%) of ERα in T-47D cells&item= O=C1CCC(N2Cc3c(ccc4c3OCC43CCN(c4ccc(C(=O)N5CCN(c6ccc([C@@H]7c8ccc(O)cc8CC[C@@H]7c7ccccc7)cc6)CC5)nc4)CC3)C2=O)C(=O)N1 (some centres unmarked) [J3]
Result: 42
